Reported GI50 values for the following molecules.
Tested on: OVCAR-4
Test: NCI tumour cell line growth inhibition, 48 h
Calls of active or inactive are those of the source. Rule as the data show it: active = GI50 up to about 1.1 µM and inactive = higher.

>  <molecule>
O=C1O/C(=C(/Cl)c2c3ccccc3cc3ccccc23)c2ccccc21

>  <assay system>
OVCAR-4

>  <GI50>
17.2 µM (inactive)

$$$$
>  <molecule>
CCCC[C@@H]1CCN2C[C@@H](O)[C@@H](O)[C@@H]2[C@H]1O

>  <assay system>
OVCAR-4

>  <GI50>
> 100 µM (inactive)

$$$$

Field GI50 (entry "Nc1ccc2c(c1)CN1C(=O)c3ccccc3C1=N2" ) reads 91.8 µM (inactive)

GET /value?item= CC(C)(C)N1CC1CNC(=O)C(=O)NCC1CN1C(C)(C)C (stereo unspecified) &field=GI50 returns 28.5 µM (inactive)

Sure, the documented GI50 for O=c1[nH]c(=O)n(C2CC(O)C(O)C(CO)O2)cc1F (stereo unspecified) is > 100 µM (inactive)

GI50 measured on C#CCOCC12C=CC(O1)C1C(=O)OCC12 (stereo unspecified) = > 100 µM (inactive)

The measured GI50 associated with COC1C(=O)CCC2(CO2)C1(O)C1(C)OC1CCC(C)C (stereo unspecified) reads > 100 µM (inactive)

Given item "Cc1noc(C)c1-n1nc2ccc3nonc3c2n1" , the value recorded as its GI50 is > 100 µM (inactive)

So for "CN(C)/C(=N\C#N)NCc1ccccc1" , the logged GI50 turned out to be > 100 µM (inactive)

For record "NC(=O)c1nnc2c(F)cccc2c1N" the listed GI50 is > 100 µM (inactive)

GI50 measured on "Cc1ccc(S(=O)(=O)N(/N=C(\N)Oc2ccc(Cl)cc2)C(=N)Oc2ccc(Cl)cc2)cc1" = > 100 µM (inactive)

====

Tested on: EKVX
Experiment: NCI tumour cell line growth inhibition, 48 h
Active and inactive are the calls of the source. No stated cut-off is given here; in the data, active = GI50 up to about 1.1 µM and inactive = higher.
recorded metric: GI50

Answered cases to consult:
>  <compound>
c1ccc2c(c1)SP1Sc3ccccc3P21 (centres undefined)

>  <assay system>
EKVX

>  <reading>
> 100 µM (inactive)

$$$$
>  <compound>
C#CCN(Cc1ccc2nc(-c3ccccc3)c(N)nc2c1)c1cc(OC)c(OC)c(OC)c1

>  <assay system>
EKVX

>  <reading>
31.2 µM (inactive)

$$$$
>  <compound>
C=CCC(C(=O)OC)C1(C(=O)OC)c2[nH]c3ccccc3c2CCN1Cc1ccccc1 (centres undefined)

>  <assay system>
EKVX

>  <reading>
> 100 µM (inactive)

$$$$
>  <compound>
Cc1ccc(-c2cc(-c3ccco3)c(C#N)c(=O)n2C2OC(OC(=O)c3ccccc3)C(OC(=O)c3ccccc3)C2OC(=O)c2ccccc2)cc1 (centres undefined)

>  <assay system>
EKVX

>  <reading>
> 100 µM (inactive)

$$$$
>  <compound>
O=C1OCC(C(=O)c2cccc(O)c2)C1=O (centres undefined)

>  <assay system>
EKVX

>  <reading>
> 100 µM (inactive)

$$$$

Value of measured GI50 for the entry "O=C(O)C12CCCC(CCC1)C2" : > 100 µM (inactive)

Value of measured GI50 for the entry COc1cc(C2c3cc4c(cc3[C@@H](Nc3ccc5c(c3)OCO5)C3COC(=O)[C@H]23)OCO4)cc(OC)c1O (some centres undefined) : 2.45 µM (inactive)

Briefly, GI50 measured for CCCCCCCCCCCC(=O)OCC1OC(n2cc(F)c(=O)[nH]c2=O)C(NC(=O)OCc2ccccc2)C(OC(=O)CCCCCCCCCCC)C1O (centres undefined) : > 100 µM (inactive)

Memo: "N#CC1=C(O)NC(O)=C(C#N)C1c1ccc(C2C(C#N)=C(O)NC(O)=C2C#N)cc1" , reported GI50: > 100 µM (inactive)
